Give Fold over rodent (competitive ELISA IC50) for every item shown.
# test-target: T1, recombinant hMCAM-His (human, UniProt P43121 24-559)
# T1 construct: not shown: His tag
# T1 chain: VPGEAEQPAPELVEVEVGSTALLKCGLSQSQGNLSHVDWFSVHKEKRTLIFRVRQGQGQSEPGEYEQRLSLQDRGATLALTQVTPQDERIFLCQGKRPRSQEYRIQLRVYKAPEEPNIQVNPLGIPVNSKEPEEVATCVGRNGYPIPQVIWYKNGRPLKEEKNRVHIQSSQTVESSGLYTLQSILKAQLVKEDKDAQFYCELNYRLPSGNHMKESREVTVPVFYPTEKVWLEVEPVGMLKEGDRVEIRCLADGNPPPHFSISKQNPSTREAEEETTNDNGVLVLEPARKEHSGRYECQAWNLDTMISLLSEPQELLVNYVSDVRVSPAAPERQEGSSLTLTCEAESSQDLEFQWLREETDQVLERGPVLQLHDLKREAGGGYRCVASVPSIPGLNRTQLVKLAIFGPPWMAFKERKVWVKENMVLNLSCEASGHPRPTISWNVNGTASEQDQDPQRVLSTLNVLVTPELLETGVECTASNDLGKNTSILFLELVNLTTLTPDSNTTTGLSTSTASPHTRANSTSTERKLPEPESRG
# assay-name: competitive ELISA on hMCAM-His against biotinylated rodent or chimeric 2120; relative to rodent 2120
Give the value in fold but do not write fold after it.

Looking up h2120_VH4 + h2120_VL3 (antibody, human IgG1, V domains shown, also called N-Q deamidate VH + conservative VL) VH: QVTLKESGPVLVKPTETLTLTCTVSGFSLTSQGVSWVRQPPGKALEWIAAISSGGTTYYNSAFKSRLTISRDTSKSQVVLTMTNMDPVDTATYYCARRYGYGWYFDFWGQGTLVTVSS VL: DIQMTQSPSSLSASVGDRVTINCKASQNIYNSLAWYQQKPGKAPKVLIFNANSLQTGIPSRFSGSGSGTDFTLTISSLQPEDFATYYCQQFYSGYTFGQGTKLEIK , I found its Fold over rodent (competitive ELISA IC50) recorded as 5

Quick note, Fold over rodent (competitive ELISA IC50) for h2120_VH1 + h2120_VL1 (antibody, human IgG1, V domains shown, also called Standard VH + standard VL) VH: QVTLKESGPVLVKPTETLTLTCTVSGFSLTSNGVSWVRQPPGKALEWIAAISSGGTTYYNSAFKSRLTISRDTSKSQVVLTMTNMDPVDTATYYCARRYGYGWYFDFWGQGTLVTVSS VL: DIQMTQSPSSLSASVGDRVTITCKASQNIYNSLAWYQQKPGKAPKVLIFNANSLQTGIPSRFSGSGSGTDFTLTISSLQPEDFATYYCQQFYSGYTFGQGTKLEIK landed at 3.1

# binder h2120_VH1 + h2120_VL2 (antibody, human IgG1, V domains shown, also called Standard VH + aggressive VL) VH: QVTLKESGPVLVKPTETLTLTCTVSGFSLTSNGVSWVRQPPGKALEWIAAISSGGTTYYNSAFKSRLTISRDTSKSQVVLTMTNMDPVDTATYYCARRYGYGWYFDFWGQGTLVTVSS VL: DIQMTQSPSSLSASVGDRVTITCKASQNIYNSLAWYQQKPGKAPKVLIFNANSLQTGVPSRFSGSGSGTDFTLTISSLQPEDFATYYCQQFYSGYTFGQGTKLEIK ; its Fold over rodent (competitive ELISA IC50) = 3.1

// Fold over rodent (competitive ELISA IC50) lookup, binder = h2120_VH1 + h2120_VL3 (antibody, V domains shown, Humanized V regions cloned into expression vectors containing human CK (VL) or human IgG1 (VH); expressed in 293F cells; also called Standard VH + conservative VL; VH1VL3) VH: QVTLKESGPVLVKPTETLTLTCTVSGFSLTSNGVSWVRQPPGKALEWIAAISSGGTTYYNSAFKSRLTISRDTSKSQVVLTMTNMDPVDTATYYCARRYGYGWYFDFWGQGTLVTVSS VL: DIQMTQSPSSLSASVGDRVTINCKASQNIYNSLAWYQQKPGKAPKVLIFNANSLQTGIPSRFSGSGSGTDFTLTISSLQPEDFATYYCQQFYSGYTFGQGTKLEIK , result: 1.8

Reference for the values: patent US20150259419A1
